Value source: ChEMBL document CHEMBL4190365

test system: MCF7; assay: Cytotoxicity in human MCF7 cells assessed as reduction in cell viability incubated for 72 hrs by calcein AM cytotoxicity assay; type: functional, cell-based; settings: Homo sapiens, MCF7, 72 h
QUANTITY_NAME: IC50

See these solved cases before continuing.
CC(C)[C@@H]1CC[C@]2(C(=O)O[C@@H]3O[C@H](CO)[C@@H](O)[C@H](O)[C@H]3O)CC[C@]3(C)[C@H](CC[C@@H]4[C@@]5(C)CC[C@H](O)C(C)(C)[C@@H]5CC[C@]43C)[C@@H]12    > 50 µM
CC(=O)O[C@H]1CC[C@]2(C)[C@H]3CC[C@@H]4C5=C(C(C)C)C(=O)C[C@]5(C(=O)OCC(=O)O)CC[C@@]4(C)[C@]3(C)CC[C@H]2C1(C)C    > 50 µM

Give MCF7 IC50 for COCCOCCOC(=O)[C@]1(COC(C)=O)CC[C@]2(C)[C@H](CC[C@@H]3[C@@]4(C)CC[C@H](OC(C)=O)C(C)(C)[C@@H]4CC[C@]32C)C1=O
> 50 µM
